- ASSAY: hydrodynamic micelle diameter (2 Rh) by photon correlation spectroscopy (PCS)
- Assay type: physicochemical
Mark each entry criterion met if its 2 Rh (hydrodynamic micelle diameter) sits below 5 nm, and criterion not met for all others.

MOLECULE	DISCRETE_LABEL
O=C([O-])CN1CCN(CC(=O)[O-])CCN(CC(O)CNC(=O)CCCC(=O)N2CCN(C(F)(F)C(F)(F)C(F)(F)C(F)(F)C(F)(F)C(F)(F)C(F)(F)C(F)(F)F)CC2)CCN(CC(=O)[O-])CC1.[Gd+3] (stereo not drawn) [metal complex III]	criterion met
CC(C(=O)NCC(=O)N(CCOCCO)CCOCCC(F)(F)C(F)(F)C(F)(F)C(F)(F)C(F)(F)C(F)(F)C(F)(F)C(F)(F)F)N1CCN(CC(=O)[O-])CCN(CC(=O)[O-])CCN(CC(=O)[O-])CC1.[Gd+3] (stereo not drawn) [metal complex VIII]	criterion not met
O=C([O-])CN1CCN(CC(=O)[O-])CCN(CC(O)CNC(=O)COCCC(F)(F)C(F)(F)C(F)(F)C(F)(F)C(F)(F)C(F)(F)C(F)(F)C(F)(F)C(F)(F)C(F)(F)F)CCN(CC(=O)[O-])CC1.[Gd+3] (stereo not drawn) [metal complex XI]	criterion not met
O=C([O-])CN1CCN(CC(=O)[O-])CCN(CC(O)CNC(=O)CN(Cc2ccccc2)S(=O)(=O)C(F)(F)C(F)(F)C(F)(F)C(F)(F)C(F)(F)C(F)(F)C(F)(F)C(F)(F)F)CCN(CC(=O)[O-])CC1.[Gd+3] (stereo not drawn) [metal complex XIII]	criterion met
COCCN(CCOCCC(F)(F)C(F)(F)C(F)(F)C(F)(F)C(F)(F)C(F)(F)C(F)(F)C(F)(F)F)C(=O)CNC(=O)C(C)N1CCN(CC(=O)[O-])CCN(CC(=O)[O-])CCN(CC(=O)[O-])CC1.[Gd+3] (stereo not drawn) [metal complex X]	criterion not met
